# target-of-assay: pSP-D (Sus scrofa)
# Sequence (Q9N1X4 21-378): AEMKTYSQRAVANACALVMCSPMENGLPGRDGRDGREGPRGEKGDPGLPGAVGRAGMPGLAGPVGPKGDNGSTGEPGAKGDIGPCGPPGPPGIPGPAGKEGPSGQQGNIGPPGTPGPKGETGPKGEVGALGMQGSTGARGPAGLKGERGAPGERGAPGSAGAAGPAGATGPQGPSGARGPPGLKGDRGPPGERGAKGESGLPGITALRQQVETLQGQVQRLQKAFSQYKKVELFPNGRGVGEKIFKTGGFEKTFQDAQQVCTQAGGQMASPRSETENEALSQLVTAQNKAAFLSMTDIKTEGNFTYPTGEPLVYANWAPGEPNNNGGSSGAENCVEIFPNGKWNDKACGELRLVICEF
recorded-endpoint: pIC50
One number for each entry, as −log10 of the molar value.

Lookup result for O=C[C@H](O)[C@@H](O)[C@@H](O)[C@H](O)CO [D-Galactose, D-galactose] ; measured pIC50: 2.19

pIC50 reported for this compound CC(=O)N[C@@H]1C(O)O[C@H](CO)[C@@H](O)[C@@H]1O (stereo partly shown) [ManNAc, N-acetylmannosamine] : 2.10

Looking up OC[C@H]1OC(O)[C@H](O)[C@@H](O)[C@@H]1O (stereo partly drawn) [D-Glucose, D-glucose] , I found its pIC50 recorded as 2.55

Now turn to the next compound.
// pIC50 lookup, compound = O=C(CO)[C@@H](O)[C@H](O)[C@H](O)CO [Fructose, fructose] , result: 2.55
